# Test Target: F508del-CFTR (Homo sapiens, UniProt P13569, DEL508-508)
# Construct: expressed in transfected cells
# Sequence (P13569 with tags, fused parts or gaps DEL508-508): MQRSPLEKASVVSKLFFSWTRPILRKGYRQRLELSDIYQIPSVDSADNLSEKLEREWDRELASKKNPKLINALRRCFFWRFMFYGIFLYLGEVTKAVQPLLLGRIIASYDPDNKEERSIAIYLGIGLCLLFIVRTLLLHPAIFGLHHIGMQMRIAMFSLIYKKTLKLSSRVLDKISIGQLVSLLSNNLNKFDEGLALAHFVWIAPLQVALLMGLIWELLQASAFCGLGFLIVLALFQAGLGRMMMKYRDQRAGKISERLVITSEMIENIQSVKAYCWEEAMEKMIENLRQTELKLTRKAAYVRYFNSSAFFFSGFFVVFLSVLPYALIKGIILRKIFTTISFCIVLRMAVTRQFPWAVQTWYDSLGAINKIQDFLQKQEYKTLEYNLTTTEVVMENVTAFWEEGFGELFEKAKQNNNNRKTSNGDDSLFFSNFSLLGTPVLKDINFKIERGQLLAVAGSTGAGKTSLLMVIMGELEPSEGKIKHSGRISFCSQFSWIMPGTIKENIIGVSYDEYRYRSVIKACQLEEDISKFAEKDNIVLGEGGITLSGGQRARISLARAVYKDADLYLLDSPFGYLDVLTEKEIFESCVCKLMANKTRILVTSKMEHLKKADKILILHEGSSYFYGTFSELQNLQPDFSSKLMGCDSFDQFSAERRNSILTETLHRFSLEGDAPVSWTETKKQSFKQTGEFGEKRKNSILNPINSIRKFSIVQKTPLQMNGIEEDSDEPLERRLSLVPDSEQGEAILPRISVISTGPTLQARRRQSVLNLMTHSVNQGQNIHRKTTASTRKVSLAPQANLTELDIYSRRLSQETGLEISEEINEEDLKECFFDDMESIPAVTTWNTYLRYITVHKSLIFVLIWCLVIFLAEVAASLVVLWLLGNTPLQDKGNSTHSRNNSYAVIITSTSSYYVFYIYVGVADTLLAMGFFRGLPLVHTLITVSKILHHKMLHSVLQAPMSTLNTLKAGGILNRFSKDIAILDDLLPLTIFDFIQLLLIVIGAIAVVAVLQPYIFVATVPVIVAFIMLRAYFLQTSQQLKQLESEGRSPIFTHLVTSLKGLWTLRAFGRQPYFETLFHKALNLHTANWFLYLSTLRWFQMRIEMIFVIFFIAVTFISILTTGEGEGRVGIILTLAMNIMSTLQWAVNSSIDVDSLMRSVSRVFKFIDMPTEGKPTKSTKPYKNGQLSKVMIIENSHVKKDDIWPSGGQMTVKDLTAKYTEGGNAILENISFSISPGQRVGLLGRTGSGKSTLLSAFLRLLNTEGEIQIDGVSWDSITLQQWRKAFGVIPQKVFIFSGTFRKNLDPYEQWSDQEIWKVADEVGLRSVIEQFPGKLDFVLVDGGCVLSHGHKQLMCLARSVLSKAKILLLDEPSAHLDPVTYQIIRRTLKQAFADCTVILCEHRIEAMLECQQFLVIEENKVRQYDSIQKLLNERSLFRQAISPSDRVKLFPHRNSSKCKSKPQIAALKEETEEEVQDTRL
# Procedure Summary: Membrane potential optical (FLIPR) assay for F508del-CFTR modulators in NIH 3T3 cells
# Assay type: cell-based
# Condition Set: NIH 3T3 cells expressing F508del; assay A1; read-out: CFTRdF508 Cor 3T3 FLIPR 384 CFTRdF508 MP 3T3 770 EC50
pEC50: −log10 of the molar value.
Assay Readout: pEC50

The following compounds have reported results that may help.
Cc1c(S(=O)(=O)NC(=O)c2ccc(-n3ccc(OCC4(C)CC4(F)F)n3)nc2N2C[C@@H](C)CC2(C)C)cnn1C (stereo partly drawn) [Compound 24]: 6.15
Cc1nn(C)cc1S(=O)(=O)NC(=O)c1ccc(-n2ccc(OCC3(C(F)(F)F)CCC3)n2)nc1N1C[C@@H](C)CC1(C)C [Compound 19]: 7.05

1: Cc1nn(C)cc1S(=O)(=O)NC(=O)c1ccc(-n2ccc(OCC3(C(F)(F)F)CC3)n2)nc1N1CC(C(C)(C)C)CC1(C)C (single isomer, unassigned) [Compound 54]
2: C[C@@H]1CN(c2nc(-n3ccc(OCCC4(C(F)(F)F)CC4)n3)ccc2C(=O)NS(=O)(=O)c2cn(C)nc2C(F)(F)F)C(C)(C)C1 [Compound 55]
3: Cc1c(S(=O)(=O)NC(=O)c2ccc(-n3ccc(OCC4C(C)(C)C4(C)C)n3)nc2N2C[C@@H](C)CC2(C)C)cnn1C [Compound 21]
4: Cc1c(S(=O)(=O)NC(=O)c2ccc(-n3ccc(OCC4CC45CC5)n3)nc2N2C[C@@H](C)CC2(C)C)cnn1C (stereo partly drawn) [Compound 26]
**Query** # desc sort on pEC50 across 4 compounds Sort and list the labels as requested.
**Result** 1, 2, 3, 4
(1: 7.30, 2: 7.00, 3: 6.28, 4: 6.00)
